# TESTED ON: Voltage-gated potassium channel subunit beta-2 (Rattus norvegicus)
# PROCEDURE TEXT: KvBeta enzyme negative modulators, primary screen, biochemical, NADPH fluorescence (AID 622);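 also: slope of raw intensity against log time taken from 70 to 1610 s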
# CONDITION DESCRIPTION: recombinant KvBeta, 4-cyanobenzaldehyde reduction, at 10 µM, stronger effect = higher value
QUANTITY MEASURED: fluorescence slope
Hey, just send me the number, nothing else.

- COMPOUND: "CCc1cccc2c(=O)c(C(=O)N3CCCCCC3)c[nH]c12"
  TESTED ON: "Voltage-gated potassium channel subunit beta-2 (Rattus norvegicus)"
  QUANTITATIVE RESULT: -0.513
- COMPOUND: "O=C(CCNS(=O)(=O)c1cccs1)Nc1ccccc1F"
  TESTED ON: "Voltage-gated potassium channel subunit beta-2 (Rattus norvegicus)"
  QUANTITATIVE RESULT: -0.3
- COMPOUND: "COc1ccc(C(=O)N2CCCc3ccccc32)cc1"
  TESTED ON: "Voltage-gated potassium channel subunit beta-2 (Rattus norvegicus)"
  QUANTITATIVE RESULT: -0.519
- COMPOUND: "CCN(CC)CCN1C(=O)C(O)=C(C(C)=O)C1c1ccc(OC)c(OC)c1 (stereo unspecified)"
  TESTED ON: "Voltage-gated potassium channel subunit beta-2 (Rattus norvegicus)"
  QUANTITATIVE RESULT: -0.445
- COMPOUND: "O=c1ccc2cc3c([nH]c4ccc(Br)cc43)oc-2c1O"
  TESTED ON: "Voltage-gated potassium channel subunit beta-2 (Rattus norvegicus)"
  QUANTITATIVE RESULT: -0.596

Query: fluorescence slope; subject: `CC(C)CCn1c(NCCc2ccccc2)nc2c1c(=O)n(C)c(=O)n2C` -0.409

* * *

inhibition by entry:
# PROCEDURE TEXT: inhibitors of TNFa-induced NFkB p65 translocation, primary screen, imaging, HUVEC, MLSMR starter and 10KST1 sets (AID 438);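 also: compound added about 3h40 before a 20 min TNFalpha stimulation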;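 as to inhibition: signal is the nuclear over cytoplasmic p65 intensity ratio per well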
# CONDITION DESCRIPTION: HUVEC TNFa-induced p65 nuclear translocation; at 2 µM, stronger effect = higher value, 0% TNFa-plus-vehicle, 100% no-TNFa wells
Number only, in %; omit the unit.

Some compounds with recorded inhibition:
- COMPOUND: "Cc1c(O)c(CN2CCCC2)cc2c1oc(=O)c1ccccc12"
  UNIT TEXT: "%"
  QUANTITATIVE RESULT: 3.3
- COMPOUND: "O=C1c2ccccc2S(=O)(=O)N1CC(O)Cn1c2ccccc2c2ccccc21 (stereo not given)"
  UNIT TEXT: "%"
  QUANTITATIVE RESULT: 1
- COMPOUND: "O=C(CCC(=O)c1cccs1)NCc1ccccc1"
  UNIT TEXT: "%"
  QUANTITATIVE RESULT: -0.2

Find the recorded inhibition belonging to `CCOC(=O)N1CCN(C(=O)COc2ccc(S(=O)(=O)NC(C)C)cc2)CC1` and report it. 6.2

Next: `Clc1ccc2c(c1)[C@H]1OCC[C@H]1[C@@H](c1ccco1)N2` 5.5

Lookup `Cc1c(C#N)c2ccccc2n1CC(=O)N1CCc2ccccc2C1` 6

* * *

# PROCEDURE TEXT: inhibitors of Sendai virus-induced IRF3 signaling, primary screen, TLR/RLR signaling modifier project, cell-based, Sendai virus stimulus, luciferase, 10K MLSCN set (AID 602276);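 also: firefly luciferase from ISG56 promoter only with Renilla not read in this screen; 0% = Sendai virus plus DMSO and 100% = medium plus DMSO without virus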
# CONDITION DESCRIPTION: HEK293 RL24 IRF3 luciferase reporter, at 10 µM, stronger effect = higher value
The following molecules are shown together with reported inhibition values.
Number in %, nothing else.

- MOLECULE: "Cc1cc(OCC(=O)NCCO)cc(C)c1Cl"
  UNIT TEXT: "%"
  QUANTITATIVE RESULT: -0.456

# query: inhibition of entry `CCOc1ccc(N2C(N)=NC(N)=NC2(C)C)cc1` 11.2

How about this molecule: CCCCCCC1/C(=N/O)CCC1C(=O)OC (stereo unspecified) 0.917

Let us now turn to `O=C(OCN1C(=O)c2ccccc2C1=O)C1CCCCC1` 6.81

Another molecule to look at: `O=S(=O)(Nc1nc2ccccc2nc1NCc1ccco1)c1ccc(Cl)cc1` 19.4

Now consider `COc1cccc(Oc2cn[nH]c2-c2ccc(O)cc2O)c1` and answer again. -4.4

Next entry: `Cn1c(=O)n(Cc2ccc(F)cc2)c(=O)c2c1nc1n2CCCN1Cc1ccccc1` 7.62

Here is the next molecule: `COC(=O)c1c(NC(=O)CSc2nnnn2C)sc(C)c1C` -19

Input CCCCSCCCNC(=O)CS(=O)Cc1nc(-c2cccc(C)c2)oc1C (stereo unspecified) 10.8

Note, next up: `O=C(c1ccco1)N1CCN(c2ccc(Cl)cc2)CC1` -73.4

Would you kindly repeat that for `O=C(Nc1ccc(CN2CCOCC2)cc1)c1cc2ccccn2n1` ? 45.9

* * *

# PROCEDURE TEXT: inhibitors of E-selectin induction by TNFa, primary screen, imaging, HUVEC, immunofluorescence, MLSMR starter and 10KST1 sets (AID 487);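 also: 100% = median nuclei count of all wells on the same plate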
# CONDITION DESCRIPTION: HUVEC TNFalpha-induced E-selectin immunofluorescence imaging, at 2 µM; measured here: cell number, toxicity
QUANTITY MEASURED: nuclei count (%)
Write it as a number; the unit % goes unstated.

Completed entries (count: 3):
- COMPOUND: "CCOCCCNC(=O)CN1CCN(Cc2ccccc2C)C1=O"
  nuclei count / %: 117
- COMPOUND: "COC(=O)Sc1nc(N2CCOCC2)c2c(c1C#N)CC(C)(C)OC2"
  nuclei count / %: 132
- COMPOUND: "Cc1ccc2nc(NC(=O)CN(C)S(=O)(=O)c3cccc4nsnc34)sc2c1"
  nuclei count / %: 101

Any idea what nuclei count was measured for `CN(C(=O)c1ccc2c(=O)n3c(nc2c1)CCCCC3)c1ccccc1` ? 76.9

Can you handle `OCCNCCCCOc1ccccc1F` next? 91.1

Same thing, different compound: CCOC(=O)Cc1[nH]nc2c1C(c1cc(OC)ccc1OC)C(C#N)=C(N)O2 (stereo not drawn) 140

Same for `O=C(CCCn1c(=O)c2sccc2n(Cc2cc(=O)n3ccccc3n2)c1=O)NCc1ccco1` 116

Entry COc1cc(NC(=O)C2C3C=CC(C3)C2C(=O)O)c(OC)cc1Cl (stereo not drawn) please 90

`Cc1ccc(S(=O)(=O)Nc2cc(C(=O)O)ccc2N2CCCCC2)cc1` , same question. 114

Now give it for `COc1ccc(C)cc1NC(=O)CCC(=O)Nc1ccc2nc(N3CCN(C)CC3)cc(C)c2c1` too. 108

Can you handle `Cc1c(C(=O)OCC(C)(C)CN(C)C)oc2ccccc12` next? 118

Same question, `Cc1nnc(N2CCCCC2)c2ccccc12` this time 87

Now give it for `COc1ccc(C(=O)NCCc2nnc(SCc3nc4ccccc4c(=O)[nH]3)n2C)cc1` too. 112

* * *

# PROCEDURE TEXT: inhibitors of TNFa-induced NFkB p65 translocation, primary screen, imaging, HUVEC, MLSMR starter and 10KST1 sets (AID 438);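 also: compound added about 3h40 before a 20 min TNFalpha stimulation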
# CONDITION DESCRIPTION: HUVEC TNFa-induced p65 nuclear translocation; measured here: nuclei count (cytotoxicity indicator), at 2.08 µM
param class (str): category from cell count; see ranges group A = under 500, group B = from 500 up to 700, group C = 700 and over

Below are worked cases with known answers.
- COMPOUND: "O=C(CSc1nc2ccccc2s1)Nn1cnnc1"
  ASSIGNED CATEGORY: "group A"
- COMPOUND: "COc1ccc2cc(C(c3nnnn3C3CCCCC3)N3CCCCCC3)c3nnnn3c2c1 (stereo unspecified)"
  ASSIGNED CATEGORY: "group C"
- COMPOUND: "COc1ccc(C(=O)N(CCCO)Cc2cc3c(C)ccc(C)c3[nH]c2=O)cc1OC"
  ASSIGNED CATEGORY: "group B"
- COMPOUND: "O=C(O)c1cc2cccc(S(=O)(=O)N3CCOCC3)c2cc1O"
  ASSIGNED CATEGORY: "group B"
- COMPOUND: "O=S(=O)(Nc1ccn(-c2ccccc2)n1)c1ccc(Br)cc1"
  ASSIGNED CATEGORY: "group A"
- COMPOUND: "CCOC(=O)c1[nH]c2ccccc2c1NC(=O)CN(C)C"
  ASSIGNED CATEGORY: "group B"
- COMPOUND: "Cc1ccc(-n2ncc3c(NCc4cccnc4)ncnc32)c(C)c1"
  ASSIGNED CATEGORY: "group B"
- COMPOUND: "Cc1noc(C(=O)Nc2ccc3c(c2)OCO3)c1Cl"
  ASSIGNED CATEGORY: "group C"
- COMPOUND: "Cc1cccc(-c2cc3nc4c(c(N5CCOCC5)n3n2)CCCC4)c1"
  ASSIGNED CATEGORY: "group B"
- COMPOUND: "CCOC(=O)CSc1nnc(NCC(=O)OC(C)C)c(=O)[nH]1"
  ASSIGNED CATEGORY: "group B"

Using the reported cell count, which band applies to CC(NC(=O)OCc1ccccc1)C(=O)OCN1C(=O)c2ccccc2C1=O (stereo unspecified) ? group B

Next: `Cn1nnc2cc(C(=O)N3CCCCCC3)ccc21` group C

`COc1ccc(CCn2c(C)cc(C(=O)CSc3nnnn3C)c2C)cc1` , same question. group A

Same thing, different compound: COc1cccc(-n2c(SC3CCOC3=O)nc3ccccc3c2=O)c1 (stereo unspecified) group A

Entry to check: COc1cc(C2C(C(=O)c3sc(C)nc3C)=C(O)C(=O)N2CCN(C)C)cc(OC)c1OC (stereo unspecified) group A
